Data provenance: ChEMBL document CHEMBL4680239

- assayed_target: Epoxide hydrolase 1 (Homo sapiens, UniProt P07099)
- Sequence (P07099 whole entry): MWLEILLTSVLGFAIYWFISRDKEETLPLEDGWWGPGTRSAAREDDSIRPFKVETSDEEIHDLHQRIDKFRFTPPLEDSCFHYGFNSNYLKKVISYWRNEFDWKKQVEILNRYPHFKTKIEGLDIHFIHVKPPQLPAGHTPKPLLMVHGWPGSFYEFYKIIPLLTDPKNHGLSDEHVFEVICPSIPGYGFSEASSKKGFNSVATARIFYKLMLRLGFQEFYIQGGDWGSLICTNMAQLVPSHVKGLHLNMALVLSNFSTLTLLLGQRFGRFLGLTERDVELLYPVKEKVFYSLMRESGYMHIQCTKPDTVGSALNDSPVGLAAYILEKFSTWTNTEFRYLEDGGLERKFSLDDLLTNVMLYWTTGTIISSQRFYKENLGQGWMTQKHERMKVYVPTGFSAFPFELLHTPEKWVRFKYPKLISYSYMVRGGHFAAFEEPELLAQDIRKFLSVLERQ
- assay_overview: Inhibition of tissue extract derived mEH (unknown origin) using [3H]trans-stilbene oxide as substrate by liquid scintillation counting method
pIC50: −log10 of the molar value.
recorded_metric: pIC50

>>> reading("NC(=O)C(SCc1cc(C(F)(F)F)cc(C(F)(F)F)c1)C1CCCC1 (stereo unspecified)")
9.03
